B1: FBXO33 (parent)
chain: RLRGLLRVLRGRPGAGSRRRGRMA

# Variants of: B1
# ASSAY_REMARKS: protein stability index of a GFP-peptide fusion (GPS, HEK-293T) (PSI 1-6); higher = more stable;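 note: lentivirally expressed fusions sorted by FACS into six bins by GFP to DsRed ratio, PSI derived from sequencing read proportions per bin multiplied by bin number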
# RUN_CONDITIONS: c terminus: a fixed tail appended
Consider the following variants; for each one, report its protein stability index.
Numbers only.

Observe how each entry below is paired with its result.
RLRGLLRVLRHRPGAGSRRRGRMA [G11H] :: 1.92
RLTGLLRVLRGRPGAGSRRRGRMA [R3T] :: 2.23
RLRGLLRVLRGRPFAGSRRRGRMA [G14F] :: 1.85
RLRGLLRVLRGRPGAGSRRRGWMA [R22W] :: 1.65
RLRGLLRVLRGRPGAGSRRAGRMA [R20A] :: 4.73
RLRGLLRNLRGRPGAGSRRRGRMA [V8N] :: 2.01
RLRGLLRVLRGRPAAGSRRRGRMA [G14A] :: 2.84
RLRGLLRVLRGRPCAGSRRRGRMA [G14C] :: 1.84
RLRGLLRVLRGRPGAGYRRRGRMA [S17Y] :: 2.52
RLRGLLRVLRGRPGAGSRHRGRMA [R19H] :: 1.88

Dear reader, for each entry below, please note its protein stability index.
1. RLRGLLRRLRGRPGAGSRRRGRMA [V8R]
2. RLRGLRRVLRGRPGAGSRRRGRMA [L6R]

OUT:
1. 2.54
2. 4.41
